- experiment_description: Mouse microsomal clearance
- Type: in vitro ADME
- conditions: mouse microsomes, read-out: CLmicr mouse microsomal clearance
measured_property: microsomal CLint

Reported microsomal CLint for Cc1nsc(N2C[C@H]3CC[C@@H](C2)[C@@H]3Nc2nc3c(-c4ccc(F)c(F)c4F)cccn3n2)n1 [RO7019009] : what is it?
< 10 µL/min/mg

====

- experiment_description: Solubility
- Type: physicochemical
measured_property: solubility (µg/mL)
Give just the number in µg/mL; leave the unit off.

Reported solubility for Cc1nsc(N2C[C@H]3CC[C@@H](C2)[C@@H]3Nc2nc3c(-c4ccc(F)c(F)c4F)cccn3n2)n1 : what is it?
3
